assay: thallium flux activation in parental CHO cells, counter-screen for KCNQ1 potentiator project (AID 493006); settings: parental CHO-K1 cells, FluxOR thallium flux, at 10 µM;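 as to activation: fluorescence ratio of max minus min over baseline after K+ and Tl+ depolarization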
Active and inactive are the calls of the source.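 The calls were made as follows: active = duplicate-averaged activation above buffer control mean plus 5 SD of those controls; inactive = the rest.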
Valid outcomes are listed here; reply with one: true = active, false = inactive

Request: Per the assay record, what outcome was assigned to O=C(CSc1ccccn1)N1CCN(S(=O)(=O)c2ccc(Cl)cc2)CC1 ?
Result: false

Request: Per the assay record, what outcome was assigned to CC(=O)N(C)c1ccc(NC(=O)Cc2cccc3ccccc23)cc1 ?
Result: false

Request: Per the assay record, what outcome was assigned to Cc1ccccc1NC(=S)NNC(=O)c1csc2c1CCC(C)C2 (stereo unspecified) ?
Result: true

Request: Per the assay record, what outcome was assigned to O=C(O)CSc1c2c(nc3cc(C(=O)Nc4cccc(C(F)(F)F)c4)ccc13)CCC2 ?
Result: false
